assay: Pharmacokinetics in Wistar rats, IV/IP/PO; assay type: in vivo; settings: Wistar, rat, plasma, iv, 5 mg/kg
value_type: half-life

Query: So what's the measured half-life for this one? Cc1ccc2c(c1)c1c(n2CCc2ccccc2)CCN(C)C1
Response: 57.5 min

====

test: Pharmacokinetics in Wistar rats, IV/IP/PO; format: in vivo; conditions: Wistar, rat, plasma, iv, 5 mg/kg, AUC0 ⟶∞, IV 5 mg/kg
value_type: AUC (ng·h/mL)
Field: numeric (ng·h/mL). Do not append units.

Query: What AUC value was documented for this compound, Cc1ccc2c(c1)c1c(n2CCc2ccccc2)CCN(C)C1 ?
Response: 7530
